compounds and their reported pIC50
System: TOV21G (ovarian cancer) cells
Measurement notes: In vitro cell proliferation inhibition assay (CellTiter-Glo), TOV21G
Type: cell-based, human
Assay context: Homo sapiens, 120 hours
Experimental: By detecting the effect of compound on cell activity in vitro in the tumor cell lines TOV21G (ovarian cancer) and MV4-11 (leukemia), the effect of compound inhibiting cell proliferation was studied in this assay. TOV21G cells and MV4-11 cells were purchased from American Type Culture Collection (ATCC). TOV21G cells were cultured in MCDB105/M199 medium (containing 15% […]), and used for testing when the cell confluence reaches 85% or more. […]
pIC50 is a log-scale quantity: -log10 of the concentration expressed in molar.

Completed entries (count: 4):
CNc1nc2ccc(F)cc2n1-c1nc(-c2c(C)nn(C3CCNCC3)c2C(F)(F)F)cc(N2CCOC[C@H]2C)n1 = 6.07
CNc1nc2cc(Cl)ccc2n1-c1nc(-c2c(C)nn(C3CCNCC3)c2C(F)(F)F)cc(N2CCOC[C@H]2C)n1 = 5.99
CNc1nc2cc(F)ccc2n1-c1nc(-c2c(C(F)(F)F)nn(CS(C)(=O)=O)c2C)cc(N2CCOC[C@H]2C)n1 = 5.70
Cc1c(-c2cc(N3CCOC[C@H]3C)nc(-c3ccnc4[nH]ccc34)n2)c(C(F)(F)F)nn1C1CCCNC1 (single isomer, unassigned) [Compound D13] = 6.10

q: Provide pIC50 value for the following compound: CNc1nc2ccccc2n1-c1nc(-c2c(C)nn(CC3CCCNC3)c2C(F)(F)F)cc(N2CCOC[C@H]2C)n1 (stereo partly drawn)
a: 6.14

q: Provide pIC50 value for the following compound: Cc1nn(C2CCNCC2)c(C(F)(F)F)c1-c1cc(N2CCOC[C@H]2C)nc(-c2ccnc3[nH]ccc23)n1 [Compound D1]
a: 6.59

* * *

Target or system: ATR kinase (Homo sapiens (Human), UniProt Q13535)
Sequence (Q13535 whole entry): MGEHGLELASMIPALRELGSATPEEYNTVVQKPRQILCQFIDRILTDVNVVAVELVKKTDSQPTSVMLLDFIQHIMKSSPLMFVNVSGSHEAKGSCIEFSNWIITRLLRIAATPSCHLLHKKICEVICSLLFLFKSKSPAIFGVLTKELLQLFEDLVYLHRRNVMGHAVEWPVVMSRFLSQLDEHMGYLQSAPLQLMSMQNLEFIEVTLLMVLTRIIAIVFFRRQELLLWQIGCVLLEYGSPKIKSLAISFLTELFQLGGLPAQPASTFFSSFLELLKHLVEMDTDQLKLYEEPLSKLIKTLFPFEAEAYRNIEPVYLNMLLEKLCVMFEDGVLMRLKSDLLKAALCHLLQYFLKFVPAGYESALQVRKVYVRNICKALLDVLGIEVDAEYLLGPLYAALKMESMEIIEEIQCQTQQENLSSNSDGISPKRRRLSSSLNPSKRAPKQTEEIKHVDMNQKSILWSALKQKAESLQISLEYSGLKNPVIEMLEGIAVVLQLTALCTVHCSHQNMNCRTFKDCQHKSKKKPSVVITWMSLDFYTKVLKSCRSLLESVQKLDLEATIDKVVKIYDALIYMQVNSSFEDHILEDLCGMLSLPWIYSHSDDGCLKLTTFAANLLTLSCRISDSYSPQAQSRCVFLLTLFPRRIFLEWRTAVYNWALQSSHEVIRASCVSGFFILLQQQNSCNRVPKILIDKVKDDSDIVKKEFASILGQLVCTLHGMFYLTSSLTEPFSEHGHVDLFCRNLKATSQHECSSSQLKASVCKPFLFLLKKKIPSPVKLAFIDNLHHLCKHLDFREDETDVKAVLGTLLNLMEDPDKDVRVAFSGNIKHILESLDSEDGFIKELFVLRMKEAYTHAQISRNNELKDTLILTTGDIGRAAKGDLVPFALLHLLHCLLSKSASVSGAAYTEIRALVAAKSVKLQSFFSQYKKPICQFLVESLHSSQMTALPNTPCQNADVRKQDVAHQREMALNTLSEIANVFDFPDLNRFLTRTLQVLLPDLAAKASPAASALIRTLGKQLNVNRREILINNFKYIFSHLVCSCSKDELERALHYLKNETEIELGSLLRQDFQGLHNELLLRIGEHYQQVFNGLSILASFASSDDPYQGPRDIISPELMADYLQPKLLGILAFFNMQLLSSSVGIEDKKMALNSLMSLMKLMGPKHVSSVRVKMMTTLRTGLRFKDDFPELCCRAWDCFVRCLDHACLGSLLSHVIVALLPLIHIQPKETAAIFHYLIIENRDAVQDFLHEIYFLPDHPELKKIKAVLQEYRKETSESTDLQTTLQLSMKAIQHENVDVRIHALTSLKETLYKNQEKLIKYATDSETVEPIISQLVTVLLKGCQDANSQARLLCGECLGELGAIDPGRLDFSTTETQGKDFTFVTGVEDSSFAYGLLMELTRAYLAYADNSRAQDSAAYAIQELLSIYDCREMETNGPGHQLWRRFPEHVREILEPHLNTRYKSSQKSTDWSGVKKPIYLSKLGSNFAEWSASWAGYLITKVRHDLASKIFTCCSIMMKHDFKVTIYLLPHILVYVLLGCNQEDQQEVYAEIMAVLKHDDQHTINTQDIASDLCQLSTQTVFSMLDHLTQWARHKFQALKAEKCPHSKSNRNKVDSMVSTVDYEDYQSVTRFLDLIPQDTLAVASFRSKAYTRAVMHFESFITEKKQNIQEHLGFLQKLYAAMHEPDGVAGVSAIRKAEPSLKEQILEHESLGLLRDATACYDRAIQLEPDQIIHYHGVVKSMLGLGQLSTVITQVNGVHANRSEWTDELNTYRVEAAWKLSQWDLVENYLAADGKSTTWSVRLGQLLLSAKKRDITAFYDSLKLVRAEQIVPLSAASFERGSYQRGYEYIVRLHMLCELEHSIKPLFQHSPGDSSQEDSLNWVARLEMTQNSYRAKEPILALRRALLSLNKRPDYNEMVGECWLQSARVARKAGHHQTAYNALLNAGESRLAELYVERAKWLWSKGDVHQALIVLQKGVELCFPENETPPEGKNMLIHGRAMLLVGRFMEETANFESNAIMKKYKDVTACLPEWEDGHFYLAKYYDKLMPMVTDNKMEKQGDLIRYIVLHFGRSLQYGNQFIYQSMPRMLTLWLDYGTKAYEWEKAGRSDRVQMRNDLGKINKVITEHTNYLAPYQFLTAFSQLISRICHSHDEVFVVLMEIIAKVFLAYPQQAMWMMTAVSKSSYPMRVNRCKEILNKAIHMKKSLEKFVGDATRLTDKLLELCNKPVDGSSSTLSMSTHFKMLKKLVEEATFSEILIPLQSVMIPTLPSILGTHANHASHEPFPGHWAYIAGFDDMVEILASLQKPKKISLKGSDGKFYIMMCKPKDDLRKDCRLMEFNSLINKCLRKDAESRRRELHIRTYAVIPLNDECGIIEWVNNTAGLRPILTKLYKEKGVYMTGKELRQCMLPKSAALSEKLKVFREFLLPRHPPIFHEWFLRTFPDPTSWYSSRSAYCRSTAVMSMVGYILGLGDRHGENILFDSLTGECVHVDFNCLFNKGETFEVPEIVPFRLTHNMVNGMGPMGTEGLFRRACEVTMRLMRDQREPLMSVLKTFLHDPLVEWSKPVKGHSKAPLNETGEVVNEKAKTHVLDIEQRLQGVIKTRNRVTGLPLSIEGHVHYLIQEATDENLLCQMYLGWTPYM
Sequence (Q8WXE1 whole entry partner): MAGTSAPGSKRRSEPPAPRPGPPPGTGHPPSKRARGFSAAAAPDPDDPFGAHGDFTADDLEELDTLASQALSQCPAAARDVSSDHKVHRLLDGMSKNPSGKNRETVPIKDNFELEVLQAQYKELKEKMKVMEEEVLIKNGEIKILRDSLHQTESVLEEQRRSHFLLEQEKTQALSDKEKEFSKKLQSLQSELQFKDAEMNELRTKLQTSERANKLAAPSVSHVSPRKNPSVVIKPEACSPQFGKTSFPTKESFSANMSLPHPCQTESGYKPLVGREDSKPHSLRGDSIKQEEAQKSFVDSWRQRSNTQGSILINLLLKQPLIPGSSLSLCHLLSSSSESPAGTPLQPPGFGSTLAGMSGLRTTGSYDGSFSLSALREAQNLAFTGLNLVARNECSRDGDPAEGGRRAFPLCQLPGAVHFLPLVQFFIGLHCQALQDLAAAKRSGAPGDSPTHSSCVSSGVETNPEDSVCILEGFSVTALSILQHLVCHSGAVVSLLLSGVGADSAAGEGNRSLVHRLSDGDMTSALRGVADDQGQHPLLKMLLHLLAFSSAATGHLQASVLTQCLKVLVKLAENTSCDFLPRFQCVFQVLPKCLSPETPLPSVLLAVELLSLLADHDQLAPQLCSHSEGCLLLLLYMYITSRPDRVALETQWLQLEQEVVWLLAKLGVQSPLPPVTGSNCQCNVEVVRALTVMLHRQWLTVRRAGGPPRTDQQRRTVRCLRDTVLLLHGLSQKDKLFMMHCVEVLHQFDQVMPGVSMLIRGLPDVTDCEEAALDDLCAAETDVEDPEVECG
Measurement notes: ATR kinase activity assay (time-resolved fluorescence, p53 substrate phosphorylation)
Type: biochemical
molecules and their reported pIC50
pIC50 is a log-scale quantity: -log10 of the concentration expressed in molar.

Completed entries (count: 2):
COc1ccc(S(=O)(=O)C(C)C)cc1-c1cc(N2CCOC[C@H]2C)nc(-c2ccnc3[nH]ccc23)n1 [Compound A13] = 7.18
CCNC(=O)Nc1nc2ccccc2n1-c1nc(-c2c(C)nn(C3CCNCC3)c2C(F)(F)F)cc(N2CCOC[C@@H]2C)n1 [Compound D37] = 7.15

q: Provide pIC50 value for the following molecule: Cc1nn(CC2CCCN(C)C2)c(C)c1-c1cc(N2CCOC[C@H]2C)nc(-c2ccnc3[nH]ccc23)n1 (stereo partly shown) [Compound A38]
a: 7.52

q: Provide pIC50 value for the following molecule: Cc1nn(C2CCNCC2)c(C(F)(F)F)c1-c1nc(-c2ccnc3[nH]ccc23)nc(N2CCOC[C@H]2C)c1F [Compound D11]
a: 8.10

* * *

Test system: MV4-11 (leukemia) cells
Measurement notes: In vitro cell proliferation inhibition assay (CellTiter-Glo), MV4-11
Format: cell-based, human
Assay context: MV4-11 cells, 120 hours
Recorded metric: pIC50
pIC50 is a log-scale quantity: -log10 of the concentration expressed in molar.

CNc1nc2cc(F)ccc2n1-c1nc(-c2c(C)nn(C3CCNCC3)c2C(F)(F)F)c(F)c(N2CCOC[C@H]2C)n1 = 6.01

q: Provide pIC50 value for the following compound: `CCNc1nc2cc(F)ccc2n1-c1nc(-c2c(C)nn(C3CCNCC3)c2C(F)(F)F)cc(N2CCOC[C@H]2C)n1`
a: 6.16

q: Provide pIC50 value for the following compound: `Cc1c(-c2cc(N3CCOC[C@H]3C)nc(-c3cc(F)cc4[nH]ccc34)n2)c(C(F)(F)F)nn1C1CCNCC1`
a: 6.26

q: Provide pIC50 value for the following compound: `CNc1nc2cc(F)ccc2n1-c1nc(-c2c(C(F)(F)F)nn(C3CCNCC3)c2C)cc(N2CCOC[C@H]2C)n1`
a: 5.87

q: Provide pIC50 value for the following compound: CNc1nc2ccccc2n1-c1nc(-c2c(C)nn(C3CCNCC3)c2C(F)(F)F)cc(C23CCOCC2C3)n1 (centres unmarked)
a: 6.70

q: Provide pIC50 value for the following compound: `COc1cc(-c2nc(-c3c(C)nn(C4CCNCC4)c3C(F)(F)F)cc(N3CCOC[C@H]3C)n2)c2cc[nH]c2n1`
a: 6.54

q: Provide pIC50 value for the following compound: `Cc1nn(C(=O)N2CCNCC2)c(C)c1-c1cc(N2CCOC[C@H]2C)nc(-c2cc(F)cc3[nH]ccc23)n1`
a: 6.66

q: Provide pIC50 value for the following compound: `CNc1nc2ncccc2n1-c1nc(-c2c(C)nn(C3CCNCC3)c2C(F)(F)F)cc(N2CCOC[C@H]2C)n1`
a: 5.51

* * *

Tested on: TOV21G (ovarian cancer) cells
Measurement notes: In vitro cell proliferation inhibition assay (CellTiter-Glo), TOV21G
Format: cell-based, human
Assay context: Homo sapiens, 120 hours
Recorded metric: IC50 (nM)
Answer format: numeric, nM implied, no suffix.

q: Provide IC50 value for the following compound: `Cc1c(-c2cc(N3CCOC[C@H]3C)nc(-c3cccc4[nH]ccc34)n2)c(C(F)(F)F)nn1C1CCNCC1`
a: 510

* * *

Target or system: UniProt Q13535
Measurement notes: ATR kinase activity assay (time-resolved fluorescence, p53 substrate phosphorylation)
Assay type: biochemical
Recorded metric: IC50 (µM)
Answer format: numeric, µM implied, no suffix.

Cc1c(-c2cc(N3CCOC[C@H]3C)nc(-c3ccnc4[nH]ccc34)n2)c(C(F)(F)F)nn1C1CCNCC1 [Compound D2] = 0.006
CNc1nc2ccc(F)cc2n1-c1nc(-c2c(C)nn(C3CCNCC3)c2C(F)(F)F)cc(N2CCOC[C@H]2C)n1 = 0.016
Cc1nn([C@@H]2CCNCC2(F)F)c(C)c1-c1cc(N2CCOC[C@H]2C)nc(-c2cc(F)cc3[nH]ccc23)n1 [Compound D54b] = 0.013

# next compound below
q: Provide IC50 value for the following compound: CNc1nc2ccc(F)cc2n1-c1nc(-c2c(C(F)(F)F)nn(C3CCCNC3)c2C)cc(N2CCOC[C@@H]2C)n1 (stereo partly shown)
a: 0.073

* * *

Measurement notes: In vivo pharmacokinetics assay in mice
Assay context: mouse; male ICR mice, oral gavage 10 mg/kg, plasma
Recorded metric: Tmax (h)
Answer format: numeric, h implied, no suffix.

CNc1nc2ccccc2n1-c1nc(-c2c(C)nn(C3CCNCC3)c2C(F)(F)F)cc(N2CCOC[C@H]2C)n1 [Compound D24] = 5.3

q: Provide Tmax value for the following compound: Cc1nn(C2CCNCC2)c(C(F)(F)F)c1-c1cc(N2CCOC[C@H]2C)nc(-c2cc(F)cc3[nH]ccc23)n1 [Compound D28]
a: 4.7

* * *

Measurement notes: In vivo pharmacokinetics assay in mice
Assay context: mouse; male ICR mice, oral gavage 10 mg/kg, plasma
Recorded metric: Cmax (ng/mL)
Answer format: numeric, ng/mL implied, no suffix.

Cc1nn(C2CCNCC2)c(C(F)(F)F)c1-c1cc(N2CCOC[C@H]2C)nc(-c2cc(F)cc3[nH]ccc23)n1 = 199

# next compound below
q: Provide Cmax value for the following compound: `CNc1nc2ccccc2n1-c1nc(-c2c(C)nn(C3CCNCC3)c2C(F)(F)F)cc(N2CCOC[C@H]2C)n1`
a: 467

* * *

Observed IC50, system ATR kinase (Homo sapiens (Human)).
Answer format: numeric, nM implied, no suffix.

CC(C)S(=O)(=O)c1ccc(C(F)(F)F)c(-c2cc(N3CCOC[C@H]3C)nc(-c3ccnc4[nH]ccc34)n2)c1 = 631
Cc1nn(C2CCNCC2)c(C(F)(F)F)c1-c1cc(N2CCOC[C@H]2C)nc(-n2c(NC(=O)C3CC3)nc3ccccc32)n1 = 2
Cc1nn(CCCN(C)C)c(C)c1-c1cc(N2CCOC[C@H]2C)nc(-c2ccnc3[nH]ccc23)n1 = 81
Cc1nn(C2CCOCC2)c(C)c1-c1cc(N2CCOC[C@H]2C)nc(-c2ccnc3[nH]ccc23)n1 = 57
Cc1nn(C2CCNCC2)c(C)c1-c1cc(N2CCOC[C@H]2C)nc(-c2ccnc3[nH]ccc23)n1 = 4

q: State recorded IC50 with ATR kinase (Homo sapiens (Human)), entry `Cc1nn(C)cc1-c1nc(-c2ccnc3[nH]ccc23)cc(N2CCOC[C@H]2C)n1` , no comment.
a: 1610

q: State recorded IC50 with ATR kinase (Homo sapiens (Human)), entry CCN1CCC(n2nc(C)c(-c3cc(N4CCOC[C@H]4C)nc(-c4ccnc5[nH]ccc45)n3)c2C)C1 (stereo partly shown) , no comment.
a: 48

q: State recorded IC50 with ATR kinase (Homo sapiens (Human)), entry `Cc1ccc(S(=O)(=O)C(C)C)cc1-c1cc(N2CCOC[C@H]2C)nc(-c2ccnc3[nH]ccc23)n1` , no comment.
a: 121

q: State recorded IC50 with ATR kinase (Homo sapiens (Human)), entry Cc1nn([C@H]2CCNCC2(F)F)c(C)c1-c1cc(N2CCOC[C@H]2C)nc(-c2cc(F)cc3[nH]ccc23)n1 [Compound D54a] , no comment.
a: 4

q: State recorded IC50 with ATR kinase (Homo sapiens (Human)), entry Cc1nn(C2CCNCC2)c(C(F)(F)F)c1-c1cc(N2CCOC[C@H]2C)nc(-n2cnc3cc(F)ccc32)n1 [Compound D30a] , no comment.
a: 16
